System: Salmonella enteritidis
Experiment: Antibacterial activity against ciprofloxacin-susceptibility revert strain of Salmonella enteritidis 104 harboring gyrA D87Y/S83F mutant, parC D79N mutant, soxR E16G/R20H mutant and soxS E52K mutant gene after 20 passages by CLSI method
Type: functional, Salmonella enterica subsp. enterica serovar Enteritidis
Settings: Salmonella enterica
Quantity name: MIC (µg/mL)
Expressed in µg/mL, but write only the number.

Request: Quick one: MIC for O=C(N[C@H](CO)[C@H](O)c1ccc([N+](=O)[O-])cc1)C(Cl)Cl ?
Result: 8

Request: Bench note: what MIC did CN(C)[C@@H]1C(O)=C(C(N)=O)C(=O)[C@@]2(O)C(O)=C3C(=O)c4c(O)cccc4[C@@](C)(O)[C@H]3C[C@@H]12 show?
Result: 2

Request: Reported MIC for CC1(C)S[C@@H]2[C@H](NC(=O)[C@H](N)c3ccccc3)C(=O)N2[C@H]1C(=O)O : what is it?
Result: 4

###

Test system: Salmonella enteritidis
Assay: Antibacterial activity against ciprofloxacin-resistant Salmonella enteritidis 5408 harboring gyrA D87Y mutant, gyrB E466D mutant, parE V461G mutant and ramR G25A mutant gene after 200 passages by CLSI method
Assay type: functional, Salmonella enterica subsp. enterica serovar Enteritidis
Conditions: Salmonella enterica
Hi there, I'd appreciate the recorded MIC for every entry that follows.

Request: Lab note: need MIC with Salmonella enteritidis for entry CN(C)[C@@H]1C(O)=C(C(N)=O)C(=O)[C@@]2(O)C(O)=C3C(=O)c4c(O)cccc4[C@@](C)(O)[C@H]3C[C@@H]12 , please look it up.
Result: 2 µg/mL

Request: Provide the documented MIC with Salmonella enteritidis as the system for CC1(C)S[C@@H]2[C@H](NC(=O)[C@H](N)c3ccccc3)C(=O)N2[C@H]1C(=O)O
Result: 4 µg/mL

Request: Please state recorded MIC (tested on Salmonella enteritidis) of CCn1cc(C(=O)O)c(=O)c2ccc(C)nc21
Result: > 256 µg/mL

Request: Reported MIC for Salmonella enteritidis, given O=C(N[C@H](CO)[C@H](O)c1ccc([N+](=O)[O-])cc1)C(Cl)Cl ?
Result: 16 µg/mL
